- System: A-431
- experiment summary: Cytotoxic activity against human A431 cells after 24 hrs by MTT assay
- Type: functional, cell-based
- cond: A-431, 24 h
# maps each entry to its IC50

smiles text: COc1ccc(C#CC(=O)[C@H]2CC[C@H]3[C@@H]4CC=C5C[C@@H](O)CC[C@]5(C)[C@H]4CC[C@]23C)c(C)c1
system name: A-431
IC50: 44.1 µM

smiles text: C[C@]12CC[C@H]3[C@@H](CC=C4C[C@@H](O)CC[C@@]43C)[C@@H]1CC[C@@H]2C(=O)C#Cc1ccccc1C(F)(F)F
system name: A-431
IC50: 4.21 µM

smiles text: COc1ccc(C#CC(=O)[C@H]2CC[C@H]3[C@@H]4CC=C5C[C@@H](O)CC[C@]5(C)[C@H]4CC[C@]23C)cc1
system name: A-431
IC50: > 50 µM

smiles text: C[C@]12CC[C@H](O)CC1=CC[C@@H]1[C@@H]2CC[C@]2(C)C(=O)CC[C@@H]12
system name: A-431
IC50: > 50 µM

smiles text: C[C@]12CC[C@H]3[C@@H](CC=C4C[C@@H](O)CC[C@@]43C)[C@@H]1CC[C@@H]2C(=O)C#Cc1cccc(C(F)(F)F)c1
system name: A-431
IC50: 2.28 µM

smiles text: C#Cc1cccc(C#CC(=O)[C@H]2CC[C@H]3[C@@H]4CC=C5C[C@@H](O)CC[C@]5(C)[C@H]4CC[C@]23C)c1
system name: A-431
IC50: 4.85 µM

smiles text: Cc1cc(C)c(C#CC(=O)[C@H]2CC[C@H]3[C@@H]4CC=C5C[C@@H](O)CC[C@]5(C)[C@H]4CC[C@]23C)cc1C
system name: A-431
IC50: 39.3 µM

smiles text: Cc1cc(C#CC(=O)[C@H]2CC[C@H]3[C@@H]4CC=C5C[C@@H](O)CC[C@]5(C)[C@H]4CC[C@]23C)ccc1F
system name: A-431
IC50: > 50 µM

smiles text: C[C@]12CC[C@H]3[C@@H](CC=C4C[C@@H](O)CC[C@@]43C)[C@@H]1CC[C@@H]2C(=O)C#Cc1cccc(F)c1
system name: A-431
IC50: > 50 µM

smiles text: C[C@]12CC[C@H]3[C@@H](CC=C4C[C@@H](O)CC[C@@]43C)[C@@H]1CC[C@@H]2C(=O)C#Cc1ccc(F)cc1
system name: A-431
IC50: 7.16 µM
